- Assay target: human CCR5 (Homo sapiens, UniProt P51681)
- Construct: expressed in transfected cells; host or cells: CHO cells co-expressing Gα16, under puromycin and zeocin selection; membrane preparation
- Sequence (P51681 whole entry): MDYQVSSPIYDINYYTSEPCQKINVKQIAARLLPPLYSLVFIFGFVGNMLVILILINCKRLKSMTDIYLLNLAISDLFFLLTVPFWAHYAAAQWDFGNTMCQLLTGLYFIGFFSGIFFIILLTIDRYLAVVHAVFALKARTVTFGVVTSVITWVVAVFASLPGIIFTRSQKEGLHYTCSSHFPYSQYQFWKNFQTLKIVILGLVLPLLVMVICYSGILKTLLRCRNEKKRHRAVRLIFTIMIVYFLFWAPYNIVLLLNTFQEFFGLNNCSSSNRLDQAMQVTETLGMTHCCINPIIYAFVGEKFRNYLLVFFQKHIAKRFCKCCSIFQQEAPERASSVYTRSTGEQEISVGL
- Experiment notes: CCR5 receptor membrane binding assay ([125I]RANTES, CHO (Gα16) human CCR5 cell membranes, SPA beads)
- Condition label: bound radioactivity after 6 h, read-out: hKi [nM] (CCR5)
Quantity measured: Ki (nM)
Please reply with the bare figure in nM and do not write the unit itself.

Please review the following examples before continuing.
Task: Ki for CO[C@H]1COCC[C@H]1NC1CCN(C(=O)c2nc(C(F)F)nc(N3CCc4ccc(C(F)(F)F)cc4C3)c2C)CC1 [Example 34] ?
Result: 190

Task: Ki for CO[C@@H]1COCC[C@@H]1NC1CCN(C(=O)c2nc(C3CCOCC3)nc(N3CCc4ccc(C(F)(F)F)cc4C3)c2C)CC1 [Example 12] ?
Result: 46

Consider the additional compound presented here.
Task: Ki for Cc1cc(-c2nc(C(=O)N3CCC(N[C@H]4CCOC[C@H]4F)CC3)c(C)c(N3CCc4ccc(C(F)(F)F)cc4C3)n2)no1 [Example 27] ?
Result: 750

###

- Assay target: human CCR5 (Homo sapiens)
- Construct: expressed in transfected cells; host or cells: CHO cells co-expressing Gα16, under puromycin and zeocin selection; membrane preparation
- Experiment notes: CCR5 receptor membrane binding assay ([125I]RANTES, CHO (Gα16) human CCR5 cell membranes, SPA beads)
- Condition label: bound radioactivity after 6 h, read-out: hKi [nM] (CCR5)
Quantity measured: Ki (nM)
Please reply with the bare figure in nM and do not write the unit itself.

Task: Hi! What's the reported Ki for CO[C@H]1COCC[C@H]1NC1CCN(C(=O)c2nc(C3CCOCC3)nc(N3CCc4ccc(C(F)(F)F)cc4C3)c2C)CC1 [Example 11] on human CCR5 (Homo sapiens)?
Result: 430

Task: Hi! What's the reported Ki for CO[C@H]1COCC[C@H]1NC1CCN(C(=O)c2nc(-c3cc(C)on3)nc(N3CCc4cc(C(F)(F)F)ccc4C3)c2C)CC1 [Example 10] on human CCR5 (Homo sapiens)?
Result: 850

Task: Hi! What's the reported Ki for Cc1c(C(=O)N2CCC(N[C@H]3CCOC[C@H]3F)CC2)nc(C2CCOCC2)nc1N1CCc2ccc(C(F)(F)F)cc2C1 [Example 13] on human CCR5 (Homo sapiens)?
Result: 1300

New cases:
Task: Hi! What's the reported Ki for Cc1c(Nc2ccc(Cl)c(Cl)c2)nc(CF)nc1C(=O)N1CCC(NC2CCOCC2F)CC1 (stereo not shown) [Example 19] on human CCR5 (Homo sapiens)?
Result: 350

Task: Hi! What's the reported Ki for Cc1c(Nc2ccc(Cl)c(Cl)c2)nc(CF)nc1C(=O)N1CCC(N[C@@H]2CCOC[C@@H]2F)CC1 [Example 37] on human CCR5 (Homo sapiens)?
Result: 1370

Task: Hi! What's the reported Ki for Cc1cc(-c2nc(C(=O)N3CCC(N[C@H]4CCOC[C@H]4F)CC3)c(C)c(N3CCc4cc(C(F)(F)F)ccc4C3)n2)no1 [Example 9] on human CCR5 (Homo sapiens)?
Result: 3400

Task: Hi! What's the reported Ki for CO[C@@H]1COCC[C@@H]1NC1CCN(C(=O)c2nc(CF)nc(N3CCc4ccc(C(F)(F)F)cc4C3)c2C)CC1 [Example 17] on human CCR5 (Homo sapiens)?
Result: 180

###

- Assay target: CCR2 (Homo sapiens, UniProt P41597)
- Construct: Membranes were prepared from THP-1 cells; endogenous in cells; host or cells: THP-1 (human acute monocytic leukaemia cells), membrane preparation
- Sequence (P41597 1-360 isoform P41597-2): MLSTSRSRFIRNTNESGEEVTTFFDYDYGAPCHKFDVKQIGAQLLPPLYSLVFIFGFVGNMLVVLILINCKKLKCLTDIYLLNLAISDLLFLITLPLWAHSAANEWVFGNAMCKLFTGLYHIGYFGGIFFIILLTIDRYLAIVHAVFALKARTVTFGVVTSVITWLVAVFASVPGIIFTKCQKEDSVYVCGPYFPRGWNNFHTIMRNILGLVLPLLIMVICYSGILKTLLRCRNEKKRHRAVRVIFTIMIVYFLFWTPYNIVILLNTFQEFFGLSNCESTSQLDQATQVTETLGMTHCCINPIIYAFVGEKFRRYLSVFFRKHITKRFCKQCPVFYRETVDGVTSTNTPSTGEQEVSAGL
- Experiment notes: CCR2 receptor membrane binding assay ([125I]MCP-1, THP-1 cell membranes, SPA beads)
- Condition label: THP-1 membranes, [125I]MCP-1, bound radioactivity after 8 h; read-out: hKi [nM](CCR2)
Quantity measured: Ki (nM)
Please reply with the bare figure in nM and do not write the unit itself.

Task: Ki for Cc1cc(-c2nc(C(=O)N3CCC(N[C@H]4CCOC[C@H]4F)CC3)c(C)c(N3CCc4cc(C(F)(F)F)ccc4C3)n2)no1 [Example 9] ?
Result: 38

New cases:
Task: Ki for Cc1c(Nc2ccc(Cl)c(Cl)c2)nc(CF)nc1C(=O)N1CCC(NC2CCOCC2F)CC1 (stereo not drawn) [Example 19] ?
Result: 3

Task: Ki for Cc1c(NC[C@H]2CCC[C@@H](c3ccc(C(F)(F)F)cc3)O2)nc(C2CCOCC2)nc1C(=O)N1CCC(N[C@@H]2CCOC[C@@H]2F)CC1 [Example 15] ?
Result: 3

###

- Assay target: human CCR5 (Homo sapiens, UniProt P51681)
- Construct: expressed in transfected cells; host or cells: CHO cells co-expressing Gα16, under puromycin and zeocin selection; membrane preparation
- Experiment notes: CCR5 receptor membrane binding assay ([125I]RANTES, CHO (Gα16) human CCR5 cell membranes, SPA beads)
- Condition label: bound radioactivity after 6 h, read-out: hKi [nM] (CCR5)
Quantity measured: log10 of Ki (log10 of the value in nM)
Form field - Quantity: Ki; Unit: nM; Scale: log10

Please review the following examples before continuing.
Task: log10 of Ki for Cc1c(C(=O)N2CCC(N[C@@H]3CCOC[C@@H]3F)CC2)nc(C2CCOCC2)nc1N1CCc2ccc(C(F)(F)F)cc2C1 ?
Result: 3.32

Task: log10 of Ki for CO[C@H]1COCC[C@H]1NC1CCN(C(=O)c2nc(CF)nc(N3CCc4ccc(C(F)(F)F)cc4C3)c2C)CC1 ?
Result: 2.66

Task: log10 of Ki for CO[C@@H]1COCC[C@@H]1NC1CCN(C(=O)c2nc(-c3cc(C)on3)nc(N3CCc4ccc(C(F)(F)F)cc4C3)c2C)CC1 ?
Result: 1.72

Task: log10 of Ki for CO[C@@H]1COCC[C@@H]1NC1CCN(C(=O)c2nc(C(F)(F)F)nc(N3CCc4ccc(C(F)(F)F)cc4C3)c2C)CC1 ?
Result: 2.18

Task: log10 of Ki for CO[C@@H]1COCC[C@@H]1NC1CCN(C(=O)c2nc(CF)nc(Nc3ccc(Cl)c(Cl)c3)c2C)CC1 ?
Result: 1.49

Consider the additional compound presented here.
Task: log10 of Ki for CSc1ccc([C@@H]2CCC[C@H](CNc3cc(C(=O)N4CCC(NC5CCOCC5F)CC4)nc(CF)n3)O2)cc1 (stereo partly shown) ?
Result: 2.36

###

- Assay target: CCR2 (Homo sapiens, UniProt P41597)
- Construct: Membranes were prepared from THP-1 cells; endogenous in cells; host or cells: THP-1 (human acute monocytic leukaemia cells), membrane preparation
- Experiment notes: CCR2 receptor membrane binding assay ([125I]MCP-1, THP-1 cell membranes, SPA beads)
- Condition label: THP-1 membranes, [125I]MCP-1, bound radioactivity after 8 h; read-out: hKi [nM](CCR2)
Quantity measured: Ki (nM)
Please reply with the bare figure in nM and do not write the unit itself.

Please review the following examples before continuing.
Task: Ki for CO[C@@H]1COCC[C@@H]1NC1CCN(C(=O)c2nc(-c3cc(C)on3)nc(NC[C@H]3CCC[C@@H](c4ccc(C(F)(F)F)cc4)O3)c2C)CC1 ?
Result: 0.7

Task: Ki for CO[C@H]1COCC[C@H]1NC1CCN(C(=O)c2nc(-c3cc(C)on3)nc(N3CCc4cc(C(F)(F)F)ccc4C3)c2C)CC1 ?
Result: 15

Task: Ki for Cc1cc(-c2nc(NC[C@H]3CCC[C@@H](c4ccc(C(F)(F)F)cc4)O3)c(C)c(C(=O)N3CCC(N[C@@H]4CCOC[C@@H]4F)CC3)n2)no1 ?
Result: 1

Task: Ki for Cc1c(NC[C@H]2CCC[C@@H](c3ccc(C(F)(F)F)cc3)O2)nc(C2CCOCC2)nc1C(=O)N1CCC(N[C@H]2CCOC[C@H]2F)CC1 ?
Result: 1

Task: Ki for CO[C@@H]1COCC[C@@H]1NC1CCN(C(=O)c2nc(-c3cc(C)on3)nc(N3CCc4ccc(C(F)(F)F)cc4C3)c2C)CC1 ?
Result: 2

Task: Ki for Cc1c(C(=O)N2CCC(N[C@H]3CCOC[C@H]3F)CC2)nc(CF)nc1N1CCc2ccc(C(F)(F)F)cc2C1 (relative stereo) ?
Result: 17

New cases:
Task: Ki for CO[C@@H]1COCC[C@@H]1NC1CCN(C(=O)c2nc(CF)nc(N3CCc4ccc(C(F)(F)F)cc4C3)c2C)CC1 ?
Result: 2

###

- Assay target: CCR2 (Homo sapiens)
- Construct: Membranes were prepared from THP-1 cells; endogenous in cells; host or cells: THP-1 (human acute monocytic leukaemia cells), membrane preparation
- Experiment notes: CCR2 receptor membrane binding assay ([125I]MCP-1, THP-1 cell membranes, SPA beads)
- Condition label: THP-1 membranes, [125I]MCP-1, bound radioactivity after 8 h; read-out: hKi [nM](CCR2)
Quantity measured: Ki (nM)
Please reply with the bare figure in nM and do not write the unit itself.

Please review the following examples before continuing.
Task: Ki for CO[C@@H]1COCC[C@@H]1NC1CCN(C(=O)c2cc(NC[C@H]3CCC[C@@H](c4ccc(SC)cc4)O3)nc(CF)n2)CC1 ?
Result: 4

Task: Ki for CO[C@@H]1COCC[C@@H]1NC1CCN(C(=O)c2nc(-c3cc(C)on3)nc(N3CCc4cc(C(F)(F)F)ccc4C3)c2C)CC1 ?
Result: 8

Consider the additional compound presented here.
Task: Ki for CSc1ccc([C@@H]2CCC[C@H](CNc3cc(C(=O)N4CCC(NC5CCOCC5F)CC4)nc(CF)n3)O2)cc1 (stereo partly drawn) ?
Result: 7
